These data points were gathered from patent US20200024330A1.

Molecular target: Env of the clade D HIV-1 pseudoviruses of the cross-clade 162-pseudovirus panel (n = 25)
Test: cell-based or functional assay
Readings of Median IC50 against viruses neutralized with an IC50 <50 µg/ml for the listed binders
Numbers only; they are read as µg/mL.

PGT-127 (antibody, V domains shown) VH: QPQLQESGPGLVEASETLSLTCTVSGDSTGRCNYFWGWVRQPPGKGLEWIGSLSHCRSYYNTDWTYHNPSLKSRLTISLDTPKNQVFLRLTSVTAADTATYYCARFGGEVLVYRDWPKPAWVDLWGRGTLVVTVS VL: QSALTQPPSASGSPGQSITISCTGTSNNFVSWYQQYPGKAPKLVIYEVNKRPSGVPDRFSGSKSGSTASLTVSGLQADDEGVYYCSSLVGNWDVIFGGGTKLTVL : 0.49

Median IC50 against viruses neutralized with an IC50 <50 µg/ml reading for PGT-135 (antibody, V domains shown) VH: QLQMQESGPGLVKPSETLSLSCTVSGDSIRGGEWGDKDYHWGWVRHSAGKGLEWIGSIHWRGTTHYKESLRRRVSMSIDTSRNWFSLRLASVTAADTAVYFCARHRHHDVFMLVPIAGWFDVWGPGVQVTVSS VL: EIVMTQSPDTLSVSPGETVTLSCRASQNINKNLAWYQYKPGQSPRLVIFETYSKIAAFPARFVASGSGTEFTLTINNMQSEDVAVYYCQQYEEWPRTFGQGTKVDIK : 1.09
